test system: L1210 leukemia ip in BDF1 mice, survival T/C; experiment: NCI In Vivo Anticancer Drug Screen. Data for tumor model L1210 Leukemia (intraperitoneal) in B6D2F1 (BDF1) mice; settings: endpoint: mean survival time; dose: 100.0 mg/kg/injection; schedule: Q01DX009 (ip); vehicle: saline with Tween-80; higher = longer survival
Toxic doses and inconclusive results are not listed.
Consider the following compounds and their measured T/C readings.

CCCCCCc1nc2nc(Cl)c(Cl)nc2[nH]1 = 106 % of control
O=C1OC(c2ccc(Cl)cc2)=N/C1=C\c1ccc(Cl)cc1 = 91 % of control
CC(=O)Nc1cccc([N+](=O)[O-])c1 = 90 % of control

Okay, next one:
## Task Which T/C value belongs to `O=C(Nc1ccc([N+](=O)[O-])cc1Cl)Sc1ccccc1O` ?
## Result 104 % of control
